ASSAY REMARKS: AUC (0 to 6 hrs) in rat at 10 mg/kg, po
Format: ADME, organism-based
Set-up: time < 6 hr, dose 10 mg/kg, route oral
PARTICULARS: plasma
OBSERVATION TYPE: AUC(0-t) at 6 h

[[record]]
molecule = "CN(C1CC1)S(=O)(=O)CC1(NC(=O)N[C@H](C(=O)N2C[C@H]3[C@@H]([C@H]2C(=O)N[C@@H](CC2CC2)C(=O)C(=O)NC2CC2)C3(C)C)C(C)(C)C)CCCCC1"
recorded_measurement = "2.2 µM·h"

[[record]]
molecule = "CCC[C@H](NC(=O)[C@@H]1[C@@H]2[C@H](CN1C(=O)[C@@H](NC(=O)NC1(CS(=O)(=O)N(C)C(C)(C)CF)CCCCC1)C(C)(C)C)C2(C)C)C(=O)C(=O)NC1CC1"
recorded_measurement = "0.1 µM·h"

[[record]]
molecule = "CCC[C@H](NC(=O)[C@@H]1[C@@H]2[C@H](CN1C(=O)[C@@H](NC(=O)NC1(CS(=O)(=O)N(C)C)CCCCC1)C(C)(C)C)C2(C)C)C(=O)C(=O)NC1CC1"
recorded_measurement = "0.6 µM·h"

[[record]]
molecule = "CCC[C@H](NC(=O)[C@@H]1[C@@H]2[C@H](CN1C(=O)[C@@H](NC(=O)NC1(CS(=O)(=O)N3CCC3)CCCCC1)C(C)(C)C)C2(C)C)C(=O)C(=O)NC1CC1"
recorded_measurement = "0.8 µM·h"

[[record]]
molecule = "CCC[C@H](NC(=O)[C@@H]1[C@@H]2[C@H](CN1C(=O)[C@@H](NC(=O)NC1(CS(=O)(=O)N(C)C3CCC3)CCCCC1)C(C)(C)C)C2(C)C)C(=O)C(=O)NC1CC1"
recorded_measurement = "0.3 µM·h"

[[record]]
molecule = "CCC[C@H](NC(=O)[C@@H]1[C@@H]2[C@H](CN1C(=O)[C@@H](NC(=O)NC1(CS(=O)(=O)N3CCOCC3)CCCCC1)C(C)(C)C)C2(C)C)C(=O)C(=O)NC1CC1"
recorded_measurement = "0.3 µM·h"

[[record]]
molecule = "CCC[C@H](NC(=O)C1[C@@H]2[C@H](CN1C(=O)[C@@H](NC(=O)NC1([C@@H](C)S(=O)(=O)N(C)C)CCCCC1)C(C)(C)C)C2(C)C)C(=O)C(=O)NC1CC1 (stereo not given in full)"
recorded_measurement = "0.6 µM·h"

[[record]]
molecule = "CC(C)(C)NC(=O)N[C@H](C(=O)N1C[C@H]2[C@@H]([C@H]1C(=O)NC(CC1CCC1)C(=O)C(N)=O)C2(C)C)C(C)(C)C (stereo not given in full)"
recorded_measurement = "0.1 µM·h"

[[record]]
molecule = "CCC[C@H](NC(=O)[C@@H]1[C@@H]2[C@H](CN1C(=O)[C@@H](NC(=O)NC1(CS(=O)(=O)N(CC)C3CC3)CCCCC1)C(C)(C)C)C2(C)C)C(=O)C(=O)NC1CC1"
recorded_measurement = "1 µM·h"


Continue with the next molecule.
Qu. For the molecule shown here, CCC[C@H](NC(=O)[C@@H]1[C@@H]2[C@H](CN1C(=O)[C@@H](NC(=O)NC1(CS(=O)(=O)N(C)CC)CCCCC1)C(C)(C)C)C2(C)C)C(=O)C(=O)NC1CC1 , give the reported AUC(0-t) at 6 h.
Ans. 1.5 µM·h
